Provenance of the data: PubChem BioAssay (NCATS)

- Test system: WaGa
- TEST_METHOD_NOTES: qHTS assay to identify novel small-molecules to repurpose for Merkel cell carcinoma treatment (AID 1296009); further: nearly all actives have a fitted effect of over 60% in size
- TEST_CONTEXT: MCC and control cell lines, CellTiter-Glo viability, 72 h; series mostly up to 46 µM
Records with an inconclusive call do not appear. Calls of active or inactive are those of the source. The call rests on the fitted dose curve; in most records, active means well fitted inhibition curve with a large enough effect; inconclusive means small, poorly fitted or top-dose-only effect; inactive means flat fitted curve, though single readings scatter.
// one of 1 (active), 0 (inactive), no free text

Input line: Called result for "Nc1ccccc1NC(=O)c1ccc(CNC(=O)OCc2cccnc2)cc1"
Output line: 1

Input line: Then "CNc1nccc(-c2cccnc2Oc2cc(C(=O)Nc3cccc(C(F)(F)F)c3)ccc2C)n1" ?
Output line: 0

Input line: Then "CNC(=O)c1cc(Oc2ccc(NC(=O)Nc3cc(C(C)(C)C)nn3-c3ccc4ncccc4c3)c(F)c2)ccn1" ?
Output line: 0

Input line: Then "O=c1[nH]nc(Sc2ncc([N+](=O)[O-])s2)n1-c1ccc2c(c1)OCCO2" ?
Output line: 1

Input line: Then "Cc1cn2c(-c3cn[nH]c3)cnc2c(Nc2ccc(C(=O)N3CCNCC3)cc2F)n1" ?
Output line: 0

Input line: Then "COc1ccc2c(OCc3nnc4ccc(-c5ccccc5)nn34)ccnc2c1" ?
Output line: 0

Input line: Then "Cc1ccc(C(=O)Nc2cccc(C(F)(F)F)c2)cc1-c1ccc2nc(NCCN3CCOCC3)ncc2c1" ?
Output line: 0

Input line: Then "O=c1c2ccccc2nc2n1CCc1c-2[nH]c2ccccc12" ?
Output line: 0

Input line: Then "CNC(=O)c1c(F)cccc1Nc1nc(Nc2cc3c(cc2OC)CCN3C(=O)CN(C)C)nc2[nH]ccc12" ?
Output line: 1

---

- System: CRL-7250
- TEST_METHOD_NOTES: Cytotoxic Profiling of Annotated Libraries Using Quantitative High-Throughput Screening (AID 1296008); further: on the % scale 0 is the no-effect control and ±100 the full control effect; nearly all actives have a fitted effect of over 60% in size
- TEST_CONTEXT: Five cell lines viability, CellTiter-Glo ATP luminescence, 48-72 h; hits give low values
Inconclusive results are not listed.
Please go through the items and note down their max response.
Answer with a number only, understood to be in %.

Input line: May I ask what max response has been recorded for "CC(=O)c1c(C)c2cnc(Nc3ccc(N4CCNCC4)cn3)nc2n(C2CCCC2)c1=O" ?
Output line: -3.02

Input line: Then "OCc1ccc(-c2ccc(-c3ccc(CO)s3)o2)s1" ?
Output line: -8.37

Input line: Then "Nc1nc(-c2nn(Cc3ccccc3F)c3ncccc23)nc(N)c1N1CCOCC1" ?
Output line: -1.46

Input line: Then "C=CCn1c(=O)c2cnc(Nc3ccc(N4CCN(C)CC4)cc3)nc2n1-c1cccc(C(C)(C)O)n1" ?
Output line: -7.63

Input line: Then "COc1ccc2c(OCc3nnc4ccc(-c5ccccc5)nn34)ccnc2c1" ?
Output line: -1.03

Input line: Then "Cc1ccc(S(=O)(=O)Nc2cc(Cl)ccc2C(=O)Nc2nc(-c3ccccc3)cs2)cc1" ?
Output line: 3.55

Input line: Then "COC(=O)C[C@](O)(CCCC(C)(C)O)C(=O)O[C@@H]1C(OC)=C[C@]23CCCN2CCc2cc4c(cc2[C@H]13)OCO4" ?
Output line: 3.78

Input line: Then C=C1C(=CC=C2CCCC3(C)[C@@H]([C@H](C)C=CC=CC(O)(CC)CC)CC[C@@H]23)C[C@@H](O)C[C@@H]1O (stereo not given in full) ?
Output line: 4.9

Input line: Then "Cc1cccc(C=NNc2cc(N3CCOCC3)nc(OCCc3ccccn3)n2)c1" ?
Output line: -4.72

Input line: Then "CN1CCN(c2cc(C(=O)Nc3ccc4c(c3)-c3c(c(C(N)=O)nn3-c3ccc(F)cc3)CC4)c(Cl)cn2)CC1" ?
Output line: -32.2

Input line: Then "COc1ccc(C=Cc2cc(OC)c(OC)c(OC)c2)cc1O" ?
Output line: -82.4

Input line: Then "COc1ccc2c(c1)CC[C@@H](CN(C)CC(=O)O)[C@H]2c1ccccc1" ?
Output line: -2.88

Input line: Then "COc1cc(C(C)C)c2c(c1)S(=O)(=O)N(COc1cc(=O)n3cccc(OCCN4CCCCC4)c3n1)C2=O" ?
Output line: -9.13

Input line: Then CCOc1ccccc1OCCNC(C)Cc1ccc(OC)c(S(N)(=O)=O)c1 (stereo not given) ?
Output line: 3.17

Input line: Then COc1ccc(CC2c3cc(OC)c(OC)cc3CC[N+]2(C)CCC(=O)OCCCCCOC(=O)CC[N+]2(C)CCc3cc(OC)c(OC)cc3C2Cc2ccc(OC)c(OC)c2)cc1OC (stereo not given) ?
Output line: -0.557

Input line: Then "CN(C)CC(C)(C)CNc1nn2c(-c3ccccc3)nnc2cc1C1CCC1" ?
Output line: -13.8

Input line: Then Cn1c2cc(S(C)=O)sc2c2cnn(Cc3cccc(N)c3)c(=O)c21 (stereo not given) ?
Output line: 0.238

Input line: Then "Clc1cccc(-c2nnnn2Cc2cccnc2)c1Cl" ?
Output line: -2.93

Input line: Then "C=C1C(=CC=C2CCC[C@]3(C)[C@@H]([C@H](C)C=C[C@H](C)C(C)C)CC[C@@H]23)C[C@@H](O)C[C@@H]1O" ?
Output line: -0.207

Input line: Then "CCC(=C(c1ccccc1)c1ccc(OCCN(C)C)cc1)c1ccccc1" ?
Output line: 3.45

---

- TEST_METHOD_NOTES: Quantitative High-Throughput drug screen in 47 multiple myeloma cell lines against the NCATS MIPE library collection: SKMM1_PLB cell viability assay (AID 1919863); further: potency means the concentration at half of the fitted maximal effect; nearly all actives have a fitted effect of over 35% in size
- TEST_CONTEXT: SKMM1 myeloma viability, CellTiter-Glo ATP, 48 h
Inconclusive results are not listed. The source made the active and inactive calls. Calls come from the whole dose curve; as a rule, active = well fitted cell-killing curve with a large enough effect; inconclusive = small, poorly fitted or top-dose-only effect, or effect the other way; inactive = no such curve, though single readings can be large or run the other way.
ENDPOINT_NAME: Potency

Input line: May I ask what Potency has been recorded for "CC(C)c1ccc(Cn2ccc3c4c(N)nc(NC5CC5)nc4ccc32)cc1" ?
Output line: 11.8 µM (active)

Input line: Then "CC(=O)c1c(C)c2cnc(Nc3ccc(N4CCNCC4)cn3)nc2n(C2CCCC2)c1=O" ?
Output line: 16.6 µM (active)

Input line: Then "CC(C)(C)NC(=O)[C@H]1CN(Cc2cccnc2)CCN1C[C@@H](O)C[C@@H](Cc1ccccc1)C(=O)N[C@H]1c2ccccc2C[C@H]1O" ?
Output line: 18.7 µM (active)

Input line: Then COc1ccc(-c2cc3c(C)nc(N)nc3n(C3CCC(OCCO)CC3)c2=O)cn1 (stereo not given) ?
Output line: 0.0132 µM (active)

Input line: Then "O=C(Cc1ccc(-c2ccc(OCCN3CCOCC3)cc2)cn1)NCc1ccccc1" ?
Output line: 0.0166 µM (active)

---

- TEST_METHOD_NOTES: qHTS of pediatric cancer cell lines to identify multiple opportunities for drug repurposing: Primary screen for Rh18 cells (AID 1347102); further: nearly all actives have a fitted effect of over 65% in size
- TEST_CONTEXT: Rh18 rhabdomyosarcoma viability, CellTiter-Glo luminescence, 48 h; series mostly up to 46 µM
Results filed as inconclusive are left out. Activity calls are given as the source filed them. Calls follow the shape of the dose curve; as a rule, active = well fitted cell-killing curve with a large enough effect; inconclusive = small, poorly fitted or top-dose-only effect; inactive = flat fitted curve, though single readings scatter.
// one of active, inactive, no free text

Input line: Called result for "CCN(CC)CCCCNc1ncc2cc(-c3cc(OC)cc(OC)c3)c(NC(=O)NC(C)(C)C)nc2n1"
Output line: active

Input line: Then "Cc1[nH]c2ccccc2c1CCNCc1ccc(C=CC(=O)NO)cc1" ?
Output line: active

Input line: Then CC[C@@H]1C(=O)N(C)c2cnc(Nc3ccc(C(=O)NC4CCC(N5CCN(CC6CC6)CC5)CC4)cc3OC)nc2N1C(C)C (stereo partly specified) ?
Output line: active

Input line: Then "Cc1cnc(Nc2ccc(F)cc2Cl)nc1-c1c[nH]c(C(=O)N[C@H](CO)c2cccc(Cl)c2)c1" ?
Output line: active

Input line: Then "C=CC(=O)Nc1cccc(Oc2nc(Nc3ccc(N4CCN(C)CC4)cc3OC)ncc2Cl)c1" ?
Output line: active

Input line: Then "C[C@H]1C[C@@H]2[C@@H]([C@@H](O)C[C@@]3(C)[C@H]2CC[C@]3(O)C(=O)CO)[C@@]2(C)C=CC(=O)C=C12" ?
Output line: inactive

Input line: Then "O=C(Nc1cn[nH]c1-c1nc2ccc(CN3CCOCC3)cc2[nH]1)NC1CC1" ?
Output line: active

Input line: Then "Cn1cc(-c2ccncc2)c(-c2ccc(OCc3ccc4ccccc4n3)cc2)n1" ?
Output line: inactive

Input line: Then "COc1ccc(-n2nc(C(N)=O)c3c2C(=O)N(c2ccc(N4CCCCC4=O)cc2)CC3)cc1" ?
Output line: inactive

Input line: Then "CNC(=O)c1ccccc1Nc1nc(Nc2ccc(N3CCOCC3)cc2OC)ncc1Cl" ?
Output line: active

Input line: Then "COc1cc(C(=O)N2CCC(N3CCN(C)CC3)CC2)ccc1Nc1ncc2c(n1)N(C)c1ccccc1C(=O)N2C" ?
Output line: active

Input line: Then "Nc1cc(C(F)(F)F)c(-c2cc(N3CCOCC3)nc(N3CCOCC3)n2)cn1" ?
Output line: active

Input line: Then "CC(C)=CCCC(C)=CCCC(C)=CCSc1ccccc1C(=O)O" ?
Output line: active

Input line: Then "Cc1cc(Nc2cc(N3CCN(C)CC3)nc(C=Cc3ccccc3)n2)n[nH]1" ?
Output line: active

Input line: Then "CC(C)c1ccccc1Cc1cc(C(=O)Nc2ccc(S(=O)(=O)c3ccccc3C(C)(C)C)cc2)c(O)c(O)c1O" ?
Output line: active

Input line: Then "O=C(CCCCCCC(=O)Nc1ccc([C@H]2O[C@@H](CSc3nc(-c4ccccc4)c(-c4ccccc4)o3)C[C@@H](c3ccc(CO)cc3)O2)cc1)NO" ?
Output line: active

Input line: Then "CC(C)(C)OC(=O)Nc1ccc(-c2cc(C(=O)NCCCCCCC(=O)NO)no2)cc1" ?
Output line: active

Input line: Then "Cc1[nH]nc2ccc(-c3cncc(OC[C@@H](N)Cc4ccccc4)c3)cc12" ?
Output line: active

Input line: Then CC(O)C1C(=O)N2C(C(=O)O)=C(SC3CNC(C(=O)N(C)C)C3)C(C)C12 (stereo unspecified) ?
Output line: inactive

Input line: Then "COc1cc(C(=O)NS(=O)(=O)c2ccccc2C)ccc1Cc1cn(C)c2ccc(NC(=O)OC3CCCC3)cc12" ?
Output line: active

Input line: Then "COC(=O)[C@]12CCC(C)(C)C[C@@H]1[C@@H]1C(=O)C=C3[C@@]4(C)C=C(C#N)C(=O)C(C)(C)[C@@H]4CC[C@@]3(C)[C@]1(C)CC2" ?
Output line: active

Input line: Then "Cc1cc(Nc2cc(N3CCN(C)CC3)nc(Sc3ccc(NC(=O)C4CC4)cc3)n2)n[nH]1" ?
Output line: active

Input line: Then "Clc1cccc(-c2nnnn2Cc2cccnc2)c1Cl" ?
Output line: inactive

Input line: Then "Fc1cc(-c2cccc3ncc(-c4cnn(C5CCNCC5)c4)nc23)cc(F)c1CN1CCOCC1" ?
Output line: active

Input line: Then "Cc1cc(CN2CCN(c3c(Br)cnc4nc(-c5ccc(N6CCN(C)CC6)cc5)[nH]c34)CC2)no1" ?
Output line: active

Input line: Then "Cc1cn2c(-c3cn[nH]c3)cnc2c(Nc2ccc(C(=O)N3CCNCC3)cc2F)n1" ?
Output line: active

Input line: Then "CN(C)c1nc(Cc2ccc(NC(=O)c3ccc4ccccc4c3)cc2)nc(Cl)c1CC(=O)O" ?
Output line: inactive

Input line: Then "CC[C@H]1CN2CCc3cc(OC)c(OC)cc3[C@H]2C[C@@H]1C[C@@H]1NCCc2cc(OC)c(OC)cc21" ?
Output line: active

Input line: Then "Nc1ccn([C@@H]2CS[C@H](CO)O2)c(=O)n1" ?
Output line: inactive

Input line: Then "CC(C)c1cc(C(=O)N2Cc3ccc(CN4CCN(C)CC4)cc3C2)c(O)cc1O" ?
Output line: active

Input line: Then "CCn1nnc2c(N3CCOCC3)nc(-c3ccc(NC(=O)Nc4ccc(C(=O)N5CCN(C)CC5)cc4)cc3)nc21" ?
Output line: active

Input line: Then "Nc1ccccc1NC(=O)c1ccc(CNc2nccc(-c3cccnc3)n2)cc1" ?
Output line: active

Input line: Then "CCN1CCN(Cc2ccc(-c3cc4c(N[C@H](C)c5ccccc5)ncnc4[nH]3)cc2)CC1" ?
Output line: active

Input line: Then CCOc1ccccc1OCCNC(C)Cc1ccc(OC)c(S(N)(=O)=O)c1 (stereo unspecified) ?
Output line: inactive

Input line: Then "CC(C)c1noc(N2CCC(COc3ccc(-c4ccc(S(C)(=O)=O)cc4)nc3)CC2)n1" ?
Output line: inactive

Input line: Then "COc1cc2c(Oc3ccc(NC(=O)C4(C(=O)Nc5ccc(F)cc5)CC4)cc3F)ccnc2cc1OCCCN1CCOCC1" ?
Output line: active
